Recorded self-cleavage kobs at 2500 uM GlcN6P by entry
B1: glmS ribozyme (parent)
chain: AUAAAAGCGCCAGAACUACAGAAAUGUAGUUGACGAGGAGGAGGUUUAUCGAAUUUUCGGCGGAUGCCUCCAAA

# Variants of: B1
# test_name: self-cleavage kobs at 2500 uM GlcN6P; higher = faster cleavage; RNA array
# recorded_conditions: with glucosamine-6-phosphate
This sample holds only a part of the variants without activity.
Return type: number; implicit unit s⁻¹.

Check out these entries, answers already filled in.
1) AUAAAAGCGCCCGAACUACAGAAAUGUAGUUGACGAGGAGGAGGUUUAUCGAAUUGUCGGCGGAUUCCUCCAAA [A12C U56G G66U]
0.000363
2) AUAAAAGCGCUAGAACUACAGAAAUGUAGUUGACGAGGAGGAGGUAUAUCGAAUUUUCGGCGGAUGCCUCCAAA [C11U U46A]
4.03e-05
3) AUAAAAGCGCCAGAACUACAGAAAUGUAGCUGACGAGGUGGAGGUUUAUCGAAUUUUCGGCGGAUGCCUCCAAA [U30C A39U]
0.000123
4) AUAAAAGCGCCAGCACUACAGAAAUGUAGUUGACGAGGAGGAGGUUUAUCGAAUUUUCGGCGGAGGCCUUCAAA [A14C U65G C70U]
0.000467
5) AUAAAAGCGCCAGAACUACAGAAAUGUAGUGGACGAGGAGGAGUUUUAUCGAAUUUUCGGCGGAUGCCUCCAAA [U31G G44U]
4.98e-05

Let us move to another entry and its self-cleavage kobs at 2500 uM GlcN6P.
# get_value(readout='self-cleavage kobs at 2500 uM GlcN6P', item= AUAAAAGCGCCAGAACUACAGAAAUGUAGUUGACGAGGUGGAGGUAUAUCGAAUUUUCGGCGGAUGCCUCCAAA [A39U U46A] )
0.000711
